FYI, the data here is from PubChem BioAssay (NCI).

For each entry below, report its TGI value.
system: MDA-MB-435; test: NCI tumour cell line growth inhibition, 48 h

For every listed record, write down its TGI.
1. COc1ccc2c(c1)C(=O)c1c-2n(CCCCl)c(=O)c2cc(N)ccc12
2. CC(C)CC1NC(=O)CCC(NC(=O)C(Cc2ccc(O)cc2)NC(=O)OCc2ccccc2)C(=O)NC(Cc2ccccc2)C(=O)NC(Cc2ccccc2)NC1=O (stereo not drawn)
3. O=C(NCCN(CCNC(=O)c1cccc(=O)n1O)CCNC(=O)c1cccc(=O)n1O)c1cccc(=O)n1O
4. C=CCN1C(=O)CS/C1=N\NC(=O)CSc1nc2ccccc2c(=O)n1CC
5. CCOC(=O)c1cc2c(n1Cc1ccccc1OC)-c1oncc1CCC2
6. COc1cccc(CCn2c(N)c(C#N)c3ccc([N+](=O)[O-])cc3c2=O)c1
7. CN(C)C/C=C/C(=O)Nc1cc2c(Nc3cccc(Cl)c3F)ncnc2cc1OCCOC(F)F

(A)
> 100 µM
> 100 µM
> 100 µM
> 100 µM
> 100 µM
> 100 µM
11.2 µM

State recorded TGI for all listed compounds.
1. COC(=O)[C@H](CCCCNC(=O)OCc1ccccc1)NC(=O)[C@@H](NC(=O)Nc1cc(C(F)(F)F)cc(C(F)(F)F)c1)C(C)C
2. COc1ccc(NC(=O)c2cccc(C3CCc4c(cc(OC)c(OC)c4OC)O3)c2)cc1 (stereo not drawn)
3. CC1(C)CN(CCNc2nccc(-c3c(-c4cccc(O)c4)nc4sccn34)n2)S(=O)(=O)N1
4. C(=C\c1ccc(OCC2CO2)cc1)/C1=NCOC1 (stereo not drawn)
5. CCOP(=O)(OCC)C(NC(c1ccccc1)c1ccccc1)c1ccc(C(C)C)cc1 (stereo not drawn)
6. N#Cc1c(N)c2c(c(-c3ccccc3)c1-c1ccccc1)C(=O)N(O)C2=O

(A)
["> 10 µM", "9.92 µM", "> 33.2 µM", "37.3 µM", "11.6 µM", "> 100 µM"]

For each of the compounds below, state TGI.
1. N[C@H]1CCN(c2c(F)cc3c(=O)c(C(=O)O)cn4c3c2Oc2c-4ccc3c2ccc2ccccc23)C1
2. CC[C@]1(Cc2ccc(OC)c(OC)c2)C=[N+]([O-])O[C@H](OCc2ccccc2)[C@@H]1OC(C)=O
3. COc1nc2c(c(=O)[nH]1)N=C(c1ccc(Cl)cc1)CC(c1ccccc1)N2 (stereo not drawn)
4. COC(=O)[C@@H]1[C@H]2CC[C@]3(C)[C@@H](OC(C)=O)CC[C@H]3[C@@H]2CC[C@H]1C(C)=O

(A)
["> 39.6 µM", "> 100 µM", "> 100 µM", "> 100 µM"]

TGI reading for "C/C(=N\NC(=S)N1CCN(c2ccccn2)CC1)c1cccc2cccnc12" : > 100 µM

* * *

test system: K-562 leukemia; assay: NCI tumour cell line growth inhibition, 48 h
Answer each item with its documented TGI.

These recorded examples may help you get a feel for the data.
>  <Molecule>
COc1cc(-c2ccccc2)cn2c1nc1ccccc12

>  <Parameter>
TGI

>  <Recorded value>
67.1 µM

$$$$
>  <Molecule>
O=C(O)c1cc(Cl)cc(Cc2cc(Cl)cc(C(=O)O)c2O)c1O

>  <Parameter>
TGI

>  <Recorded value>
> 100 µM

$$$$
>  <Molecule>
C/C=C1/C(=Cc2[nH]c(C=c3[nH]/c(=C/C4=NC(=O)C(CC)=C4C)c(C)c3CCC(=O)O)c(CCC(=O)O)c2C)NC(=O)C1C (stereo unspecified)

>  <Parameter>
TGI

>  <Recorded value>
> 50 µM

$$$$

Give TGI for all molecules that follow.
1. CCc1cccc(NC(=O)c2cc(/C=C/c3ccccc3)[nH]c(=S)n2)c1
2. CC(C)(C)OC1=C(OC(C)(C)C)C(O)(c2ccc(Cl)cc2)C1=O (stereo unspecified)
3. CC(C)(C)OC(=O)N1Cc2cc3ccccc3nc2C1CO (stereo unspecified)
4. CC1OC(CC2C=CCc3c(O)c4c(c(O)c32)C(=O)c2ccccc2C4=O)CC(NC(=O)C(F)(F)F)C1O (stereo unspecified)

(A)
1: > 100 µM; 2: > 100 µM; 3: > 100 µM; 4: 20.6 µM

Please report TGI for every entry that follows.
1. Nc1ncnc2c1ncn2CCCCC(=O)O
2. CCOP(=O)(OCC)C(NC(c1ccccc1)c1ccccc1)c1ccc(C(C)C)cc1 (stereo unspecified)
3. COC1C(=O)N(SC)C1c1ccccc1Cl (stereo unspecified)
4. NS(=O)(=O)c1cc(C(=O)O)c(Cl)c([N+](=O)[O-])c1Cl

(A)
1. > 100 µM
2. 14.8 µM
3. 66.2 µM
4. > 100 µM
